- Assay Info: Half-lives and pharmacokinetic parameters of polypeptides vs HM-1
- Assay Context: in vivo
Peptide text beside a SMILES is read from it. * marks the point of attachment. X9 = O=C1C=CC(=O)N1CCOCCOCCOCCOCCOCCCCCCCC(=O)*; X66 = O=C1C=CC(=O)N1c1cccc(CCCCCCCC(=O)*)c1; X43 = O=C1C=CC(=O)N1c1ccc(CCCCCCC(=O)*)cc1
Measure Name: clearance (mL/min/kg)

{"Compound": "C[C@H](NC(=O)CNC(=O)[C@H](CCCNC(=N)N)NC(=O)CCCCCCCOCCOCCOCCOCCOCCN1C(=O)C=CC1=O)C(=O)N[C@@H](CC(=O)O)C(=O)N[C@@H](CCCNC(=N)N)C(=O)N[C@@H](C)C(=O)NCC(=O)NCC(=O)NCC(=O)NCC(=O)N[C@@H](CCCNC(=N)N)C(=O)NCC(=O)N[C@@H](CC(=O)O)C(=O)O [X83] (X9-RGADRAGGGGRGD-OH)", "Measured Number": 0.57}
{"Compound": "C[C@H](NC(=O)CNC(=O)[C@H](CCCNC(=N)N)NC(=O)CCCCCCc1ccc(N2C(=O)C=CC2=O)cc1)C(=O)N[C@@H](CC(=O)O)C(=O)N[C@@H](CCCNC(=N)N)C(=O)N[C@@H](C)C(=O)NCC(=O)NCC(=O)NCC(=O)NCC(=O)N[C@@H](CCCNC(=N)N)C(=O)NCC(=O)N[C@@H](CC(=O)O)C(=O)O [X42] (X43-RGADRAGGGGRGD-OH)", "Measured Number": 0.615}
{"Compound": "C[C@H](NC(=O)CNC(=O)[C@H](CCCNC(=N)N)NC(=O)CCCCCCCc1cccc(N2C(=O)C=CC2=O)c1)C(=O)N[C@@H](CC(=O)O)C(=O)N[C@@H](CCCNC(=N)N)C(=O)N[C@@H](C)C(=O)NCC(=O)NCC(=O)NCC(=O)NCC(=O)N[C@@H](CCCNC(=N)N)C(=O)NCC(=O)N[C@@H](CC(=O)O)C(=O)O [X31] (X66-RGADRAGGGGRGD-OH)", "Measured Number": 0.582}

====

- Test system: IL-1β production by mouse peritoneal macrophages
- Assay Info: IL-1β production by mouse peritoneal macrophages (ELISA)
- Format: cell-based
- Assay Context: dose 0.2 μM; mouse peritoneal macrophages, 48 h, ELISA
Peptide text beside a SMILES is read from it. * marks the point of attachment. X65 = O=C1C=CC(=O)N1c1cccc(CCCCCCCCCCCCC(=O)*)c1; X55 = O=C1C=CC(=O)N1c1ccccc1CCCCCCCCC(=O)*; X46 = O=C1C=CC(=O)N1c1cccc(CCCCC(=O)*)c1

{"Molecule": "C[C@H](NC(=O)CNC(=O)[C@H](CCCNC(=N)N)NC(=O)CCCCCCCCCCCCc1cccc(N2C(=O)C=CC2=O)c1)C(=O)N[C@@H](CC(=O)O)C(=O)N[C@@H](CCCNC(=N)N)C(=O)N[C@@H](C)C(=O)NCC(=O)NCC(=O)NCC(=O)NCC(=O)N[C@@H](CCCNC(=N)N)C(=O)NCC(=O)N[C@@H](CC(=O)O)C(=O)O [X36] (X65-RGADRAGGGGRGD-OH)", "Unit Of Measurement": "pg/mL", "IL-1β": 619.62}
{"Molecule": "C[C@H](NC(=O)CNC(=O)[C@H](CCCNC(=N)N)NC(=O)CCCCc1cccc(N2C(=O)C=CC2=O)c1)C(=O)N[C@@H](CC(=O)O)C(=O)N[C@@H](CCCNC(=N)N)C(=O)N[C@@H](C)C(=O)NCC(=O)NCC(=O)NCC(=O)NCC(=O)N[C@@H](CCCNC(=N)N)C(=O)NCC(=O)N[C@@H](CC(=O)O)C(=O)O [X28] (X46-RGADRAGGGGRGD-OH)", "Unit Of Measurement": "pg/mL", "IL-1β": 637.34}
{"Molecule": "C[C@H](NC(=O)CNC(=O)[C@H](CCCNC(=N)N)NC(=O)CCCCCCCCc1ccccc1N1C(=O)C=CC1=O)C(=O)N[C@@H](CC(=O)O)C(=O)N[C@@H](CCCNC(=N)N)C(=O)N[C@@H](C)C(=O)NCC(=O)NCC(=O)NCC(=O)NCC(=O)N[C@@H](CCCNC(=N)N)C(=O)NCC(=O)N[C@@H](CC(=O)O)C(=O)O [X20] (X55-RGADRAGGGGRGD-OH)", "Unit Of Measurement": "pg/mL", "IL-1β": 631.59}

====

- Assay Info: Half-lives and pharmacokinetic parameters of polypeptides vs HM-1
- Assay Context: in vivo; read-out: CL (converted)
Peptide text beside a SMILES is read from it. * marks the point of attachment. Hexanoyl(6-maleimido) = O=C1C=CC(=O)N1CCCCCC(=O)*; Butanoyl(4-maleimido) = O=C1C=CC(=O)N1CCCC(=O)*; Propanoyl(3-maleimido) = O=C1C=CC(=O)N1CCC(=O)*; Maleimidoacetyl = O=C1C=CC(=O)N1CC(=O)*; X42 = O=C1C=CC(=O)N1CCOCCC(=O)*

{"Molecule": "C[C@H](NC(=O)CNC(=O)[C@H](CCCNC(=N)N)NC(=O)CCCN1C(=O)C=CC1=O)C(=O)N[C@@H](CC(=O)O)C(=O)N[C@@H](CCCNC(=N)N)C(=O)N[C@@H](C)C(=O)NCC(=O)NCC(=O)NCC(=O)NCC(=O)N[C@@H](CCCNC(=N)N)C(=O)NCC(=O)N[C@@H](CC(=O)O)C(=O)O [X3] ({Butanoyl(4-maleimido)}-RGADRAGGGGRGD-OH)", "clearance [mL/min/kg]": 0.493}
{"Molecule": "CC(C)[C@H](NC(=O)[C@H](C)NC(=O)CNC(=O)[C@H](CCCNC(=N)N)NC(=O)CCN1C(=O)C=CC1=O)C(=O)N[C@@H](CC(=O)O)C(=O)N[C@@H](CCCNC(=N)N)C(=O)N[C@@H](C)C(=O)NCC(=O)NCC(=O)NCC(=O)NCC(=O)N[C@@H](CCCNC(=N)N)C(=O)NCC(=O)N[C@@H](CC(=O)O)C(=O)O [P9] ({Propanoyl(3-maleimido)}-RGAVDRAGGGGRGD-OH; C-terminus assumed)", "clearance [mL/min/kg]": 0.597}
{"Molecule": "C[C@H](NC(=O)CNC(=O)[C@H](CCCNC(=N)N)NC(=O)CCCCCN1C(=O)C=CC1=O)C(=O)N[C@@H](CC(=O)O)C(=O)N[C@@H](CCCNC(=N)N)C(=O)N[C@@H](C)C(=O)N[C@@H](CCC(=O)O)C(=O)N[C@@H](C)C(=O)N[C@@H](C)C(=O)N[C@@H](C)C(=O)N[C@@H](CCCCN)C(=O)N[C@@H](CCCNC(=N)N)C(=O)NCC(=O)N[C@@H](CC(=O)O)C(=O)O [P12] ({Hexanoyl(6-maleimido)}-RGADRAEAAAKRGD-OH; C-terminus assumed)", "clearance [mL/min/kg]": 0.49}
{"Molecule": "C[C@H](NC(=O)CNC(=O)[C@H](CCCNC(=N)N)NC(=O)CCOCCN1C(=O)C=CC1=O)C(=O)N[C@@H](CC(=O)O)C(=O)N[C@@H](CCCNC(=N)N)C(=O)N[C@@H](C)C(=O)NCC(=O)NCC(=O)NCC(=O)NCC(=O)N[C@@H](CCCNC(=N)N)C(=O)NCC(=O)N[C@@H](CC(=O)O)C(=O)O [X50] (X42-RGADRAGGGGRGD-OH)", "clearance [mL/min/kg]": 0.62}
{"Molecule": "C[C@H](NC(=O)CNC(=O)[C@H](CCCNC(=N)N)NC(=O)CN1C(=O)C=CC1=O)C(=O)N[C@@H](CC(=O)O)C(=O)N[C@@H](CCCNC(=N)N)C(=O)N[C@@H](C)C(=O)NCC(=O)NCC(=O)NCC(=O)NCC(=O)N[C@@H](CCCNC(=N)N)C(=O)NCC(=O)N[C@@H](CC(=O)O)C(=O)O [X1] (Maleimidoacetyl-RGADRAGGGGRGD-OH)", "clearance [mL/min/kg]": 0.575}

====

The entries below come with measured Inhibition rate (%) values attached.
- Tested on: retinal neovascularization (OIR model)
- Assay Info: Retinal vessels in OIR mice
- Assay type: in vivo, C57/B16 mice
- Assay Context: dose 0.05 μM in the vitreous chamber on day 13, retinal vessels evaluated on day 17, vs negative control
Marks after values point to notes of the source that are not given here. Peptide text beside a SMILES is read from it. * marks the point of attachment. X74 = O=C1C=CC(=O)N1c1cccc(CCCCCCCCCCC(=O)*)c1; X60 = O=C1C=CC(=O)N1c1ccccc1CCCCCCCCCC(=O)*; X54 = O=C1C=CC(=O)N1c1cccc(CCCCCCC(=O)*)c1; X55 = O=C1C=CC(=O)N1c1ccccc1CCCCCCCCC(=O)*; X63 = O=C1C=CC(=O)N1c1ccccc1CCCCCCC(=O)*

{"Compound": "C[C@H](NC(=O)CNC(=O)[C@H](CCCNC(=N)N)NC(=O)CCCCCCCCc1ccccc1N1C(=O)C=CC1=O)C(=O)N[C@@H](CC(=O)O)C(=O)N[C@@H](CCCNC(=N)N)C(=O)N[C@@H](C)C(=O)NCC(=O)NCC(=O)NCC(=O)NCC(=O)N[C@@H](CCCNC(=N)N)C(=O)NCC(=O)N[C@@H](CC(=O)O)C(=O)O [X20] (X55-RGADRAGGGGRGD-OH)", "Inhibition rate (%)": "44.34%*"}
{"Compound": "C[C@H](NC(=O)CNC(=O)[C@H](CCCNC(=N)N)NC(=O)CCCCCCCCCCc1cccc(N2C(=O)C=CC2=O)c1)C(=O)N[C@@H](CC(=O)O)C(=O)N[C@@H](CCCNC(=N)N)C(=O)N[C@@H](C)C(=O)NCC(=O)NCC(=O)NCC(=O)NCC(=O)N[C@@H](CCCNC(=N)N)C(=O)NCC(=O)N[C@@H](CC(=O)O)C(=O)O [X34] (X74-RGADRAGGGGRGD-OH)", "Inhibition rate (%)": "43.40%*"}
{"Compound": "C[C@H](NC(=O)CNC(=O)[C@H](CCCNC(=N)N)NC(=O)CCCCCCCCCc1ccccc1N1C(=O)C=CC1=O)C(=O)N[C@@H](CC(=O)O)C(=O)N[C@@H](CCCNC(=N)N)C(=O)N[C@@H](C)C(=O)NCC(=O)NCC(=O)NCC(=O)NCC(=O)N[C@@H](CCCNC(=N)N)C(=O)NCC(=O)N[C@@H](CC(=O)O)C(=O)O [X21] (X60-RGADRAGGGGRGD-OH)", "Inhibition rate (%)": "44.34%*"}
{"Compound": "C[C@H](NC(=O)CNC(=O)[C@H](CCCNC(=N)N)NC(=O)CCCCCCc1cccc(N2C(=O)C=CC2=O)c1)C(=O)N[C@@H](CC(=O)O)C(=O)N[C@@H](CCCNC(=N)N)C(=O)N[C@@H](C)C(=O)NCC(=O)NCC(=O)NCC(=O)NCC(=O)N[C@@H](CCCNC(=N)N)C(=O)NCC(=O)N[C@@H](CC(=O)O)C(=O)O [X30] (X54-RGADRAGGGGRGD-OH)", "Inhibition rate (%)": "44.34%*"}
{"Compound": "C[C@H](NC(=O)CNC(=O)[C@H](CCCNC(=N)N)NC(=O)CCCCCCc1ccccc1N1C(=O)C=CC1=O)C(=O)N[C@@H](CC(=O)O)C(=O)N[C@@H](CCCNC(=N)N)C(=O)N[C@@H](C)C(=O)NCC(=O)NCC(=O)NCC(=O)NCC(=O)N[C@@H](CCCNC(=N)N)C(=O)NCC(=O)N[C@@H](CC(=O)O)C(=O)O [X18] (X63-RGADRAGGGGRGD-OH)", "Inhibition rate (%)": "43.87%*"}
